# subject.of.test: HIV-1 PR (Human immunodeficiency virus type 1 group M subtype B, UniProt P04585)
# measurement.description: HIV-protease inhibitory activity assay (FRET peptide substrate)
# setup.conditions: Test Example 1
readout: IC50 (nM)
Record the value in nM, omitting the unit from your answer.

Quick check: IC50 on HIV-1 PR (Human immunodeficiency virus type 1 group M subtype B, UniProt P04585), item COc1ccc(S(=O)(=O)N(CC(C)C)CC(O)C(Cc2ccc(NCc3ccc(F)c(-c4sc5c(c4C(=O)O)CC(C)(C)CC5)c3)cc2)NC(=O)OC2COC3(C)OCCC23)cc1 (stereo not shown) ?
2.02

Try this compound too: CNC(=O)c1ccc(CNc2ccc(CC(NC(=O)OC3COC4(C)OCCC34)C(O)CN(CC(C)C)S(=O)(=O)c3ccc(OC)cc3)cc2)c(-c2sc3c(c2C(=O)O)CC(C)(C)CC3)c1 (stereo not shown)
1.63

Try this compound too: COc1ccc(S(=O)(=O)N(CC(C)C)CC(O)C(Cc2ccc(NCc3nc4ccccc4cc3C(=O)Nc3sc4c(c3C(=O)O)CC(C)(C)CC4)cc2)NC(=O)OC2COC3(C)OCCC23)cc1 (stereo not shown)
6.26

Try this compound too: COc1ccc(S(=O)(=O)N(CC(C)C)CC(O)C(Cc2ccc(NCc3cncc(C(=O)Nc4sc5c(c4C(=O)O)CC(C)(C)CC5)c3)cc2)NC(=O)OC2COC3(C)OCCC23)cc1 (stereo not shown)
1.88

Try this compound too: CC(C)CN(CC(O)C(Cc1ccc(OCc2ccccc2-c2ccccc2C(=O)N(C)C)cc1)NC(=O)OC1COC2(C)OCCC12)S(=O)(=O)c1ccc2ncsc2c1 (stereo not shown)
0.96

Try this compound too: COc1ccc(S(=O)(=O)N(CC(C)C)CC(O)C(Cc2ccc(OCc3ncc(Cl)cc3-c3sc4c(c3C(=O)O)CC(C)(C)CC4)cc2)NC(=O)OC2COC3(C)OCCC23)cc1 (stereo not shown)
0.99

Try this compound too: COc1ccc(S(=O)(=O)N(CC(C)C)CC(O)C(Cc2ccc(N(Cc3ccco3)Cc3ccccc3-c3sc4c(c3C(=O)O)CC(C)(C)CC4)cc2)NC(=O)OC2COC3(C)OCCC23)cc1 (stereo not shown)
13.1

Try this compound too: "CC(C)CN(C[C@@H](O)[C@H](Cc1ccc(CCc2sc3c(c2C(=O)O)CC(C)(C)CC3)cc1)NC(=O)O[C@H]1CO[C@@]2(C)OCC[C@@H]12)S(=O)(=O)c1ccc2nc(N)sc2c1"
2.27

Try this compound too: COc1ccc(S(=O)(=O)N(CC(C)C)CC(O)C(Cc2ccc(N(C)CCCc3ccccc3-c3sc4c(c3C(=O)O)CC(C)(C)CC4)cc2)NC(=O)OC2COC3(C)OCCC23)cc1 (stereo not shown)
2.02

Try this compound too: COc1ccc(S(=O)(=O)N(CC(C)C)CC(O)C(Cc2ccc(NCc3ccccc3NC(=O)Nc3sc4c(c3C(=O)O)CC(C)(C)CC4)cc2)NC(=O)OC2COC3(C)OCCC23)cc1 (stereo not shown)
2.74
